- System: methicillin-resistant Staphylococcus aureus (MRSA) isolated from humans
- testDetails: Antibacterial activity (IC), Mueller-Hinton agar containing the sample (Example 8, Table 43)
- Assay type: cell-based
- conditionSet: Staphylococcus aureus, MRSA, 18 h, MRSA strain 891179, 37°C
Would you mind telling me the reported MIC of each entry?

Worked examples follow.
1) Cc1cc(Oc2ccc(C(F)(F)F)cc2Cl)ccc1OC(C)C(=O)C(C#N)c1ccc(Cl)c(Cl)c1 (stereo not shown) = 1 to 10 µg/mL
2) Cc1cc(OC(C)C(=O)C(C#N)c2cccc(Br)c2)ccc1Oc1ccc(C(F)(F)F)cc1Cl (stereo not shown) = 1 to 10 µg/mL

Each of the following entries comes with a recorded value; kindly state MIC for each.
1. Cc1cc(Oc2ccc(C(F)(F)F)cc2Cl)ccc1OC(C)C(=O)C(C#N)c1cccc(Br)c1 (stereo not shown)
2. Cc1cc(OC(C)C(=O)C(C#N)c2ccc(Cl)c(Cl)c2)ccc1Oc1ccc(C(F)(F)F)cc1Cl (stereo not shown)

["1 to 10 µg/mL", "≤ 1 µg/mL"]

---

Assign IC to each entry below.
- Tested on: Enterococcus from fish
- testDetails: Antibacterial activity (IC), agar as in Example 8, media with 1.5% NaCl, 25°C (Example 20, Tables 53-55)
- Type: cell-based
- conditionSet: Enterococcus Seriolicida MS89064

Example results:
1. CC(Oc1cc(Cl)cc(Oc2ccc(C(F)(F)F)cc2Cl)c1)C(=O)C(C#N)c1ccc(Cl)c(Cl)c1 (stereo not shown) = ≤ 1 µg/mL
2. COc1cc(Oc2ccc(C(F)(F)F)cc2Cl)cc(OC(C)C(=O)C(C#N)c2ccc(Cl)c(Cl)c2)c1 (stereo not shown) = ≤10 (10-1 µg/ml)
3. CC(Oc1cc(Oc2ccc(C(F)(F)F)cc2Cl)cc(Oc2ccc(C(F)(F)F)cc2Cl)c1)C(=O)C(C#N)c1ccc(Cl)c(Cl)c1 (stereo not shown) = ≤10 (10-1 µg/ml)

Lab note: next compound to report on.
Recorded IC of CC(Oc1cccc(Oc2ccc(Br)cc2F)c1)C(=O)C(C#N)c1ccc(Cl)c(Cl)c1 (stereo not shown) , please. ≤10 (10-1 µg/ml)

---

- Test system: Enterococcus from fish
- testDetails: Antibacterial activity (IC), agar as in Example 8, media with 1.5% NaCl, 25°C (Example 20, Tables 53-55)
- Assay type: cell-based
- conditionSet: Enterococcus Seriolicida KG86050
endpointName: IC

1. COc1cc(Oc2ccc(C(F)(F)F)cc2Cl)cc(OC(C)C(=O)C(C#N)c2ccc(Cl)c(Cl)c2)c1 (stereo not shown) = ≤10 (10-1 µg/ml)
2. CC(Oc1cc(Oc2ccc(C(F)(F)F)cc2Cl)ccc1Cl)C(=O)C(C#N)c1cccc(Br)c1 (stereo not shown) = ≤ 1 µg/mL

Query compound follows.
Name the reported IC value associated with the compound Cc1cc(Oc2ccc(C(F)(F)F)cc2Cl)cc(OC(C)C(=O)C(C#N)c2ccc(Cl)c(Cl)c2)c1 (stereo not shown) ≤10 (10-1 µg/ml)

---

- testDetails: in vivo
- conditionSet: mouse, oral administration, single dose, suspended in aqueous 0.5% CMC solution, male mice, observed for 14 days
endpointName: LD50 at 336 h

Study these solved cases before continuing.
1) CC(Oc1ccc(Oc2ncc(C(F)(F)F)cc2Cl)cc1)C(=O)C(C#N)c1ccc(Cl)c(Cl)c1 (stereo not drawn) = > 2000 mg/kg
2) CC(Oc1cc(Oc2ccc(C(F)(F)F)cc2Cl)ccc1Cl)C(=O)C(C#N)c1cccc(Br)c1 (stereo not drawn) = > 2000 mg/kg

We now examine a further molecule.
Param item = CC(Oc1cccc(Oc2ccc(C(F)(F)F)cc2Cl)c1)C(=O)C(C#N)c1ccc(Cl)c(Cl)c1 (stereo not drawn) ; retrieve measured LD50 at 336 h. > 2000 mg/kg

---

- Test system: Enterococcus from fish
- testDetails: Antibacterial activity (IC), agar as in Example 8, media with 1.5% NaCl, 25°C (Example 20, Tables 53-55)
- Format: cell-based
- conditionSet: Enterococcus Seriolicida KG86050
Would you mind telling me the reported IC of each entry?

Consider the reported IC for these molecules:
1. CC(Oc1cccc(Oc2ccc(C(F)(F)F)cc2Cl)c1)C(=O)C(C#N)c1ccc(Cl)cc1Cl (stereo not shown) = ≤10 (10-1 µg/ml)
2. CC(Oc1cccc(Oc2ccc(Br)cc2F)c1)C(=O)C(C#N)c1cccc(Br)c1 (stereo not shown) = ≤10 (10-1 µg/ml)
3. CC(Oc1cc(Cl)cc(Oc2ccc(C(F)(F)F)cc2Cl)c1)C(=O)C(C#N)c1cccc(Br)c1 (stereo not shown) = ≤ 1 µg/mL
4. CC(Oc1cc(Oc2ccc(C(F)(F)F)cc2Cl)cc(Oc2ccc(C(F)(F)F)cc2Cl)c1)C(=O)C(C#N)c1ccc(Cl)c(Cl)c1 (stereo not shown) = ≤10 (10-1 µg/ml)
5. CC(Oc1cc(Oc2ccc(C(F)(F)F)cc2Cl)cc(Oc2ccc(C(F)(F)F)cc2Cl)c1)C(=O)C(C#N)c1cccc(Br)c1 (stereo not shown) = ≤10 (10-1 µg/ml)

Which IC reading was recorded for the molecule CC(Oc1cccc(Oc2ccc(Br)cc2F)c1)C(=O)C(C#N)c1ccc(Cl)c(Cl)c1 (stereo not shown) ? ≤10 (10-1 µg/ml)

---

Consider the following compounds; for each one, report its IC.
- System: Pasteurella from fish
- testDetails: Antibacterial activity (IC), agar as in Example 8, media with 1.5% NaCl, 25°C (Example 20, Tables 53-55)
- Type: cell-based
- conditionSet: Pasteurella piscicida KP94-04

1) CC(Oc1cccc(Oc2ccc(C(F)(F)F)cc2Cl)c1)C(=O)C(C#N)c1ccc(Cl)c(Cl)c1 (stereo not shown) = ≤10 (10-1 µg/ml)
2) CC(Oc1cc(Cl)cc(Oc2ccc(C(F)(F)F)cc2Cl)c1)C(=O)C(C#N)c1cccc(Br)c1 (stereo not shown) = ≤10 (10-1 µg/ml)

Now for a further compound.
Record lookup: for Pasteurella from fish, what IC belongs to CC(Oc1cc(Cl)cc(Oc2ccc(C(F)(F)F)cc2Cl)c1)C(=O)C(C#N)c1ccc(Cl)c(Cl)c1 (stereo not shown) ? ≤10 (10-1 µg/ml)

---

- Tested on: Enterococcus from fish
endpointName: MIC

Here are 2 compounds together with their reported answers.
1. CC(Oc1cccc(Oc2ccc(C(F)(F)F)cc2Cl)c1)C(=O)C(C#N)c1ccc(Cl)c(Cl)c1 (stereo not drawn) = ≤ 1 µg/mL
2. COc1cc(Oc2ccc(C(F)(F)F)cc2Cl)cc(OC(C)C(=O)C(C#N)c2ccc(Cl)c(Cl)c2)c1 (stereo not drawn) = 1 to 10 µg/mL

Next, consider the following compound.
// lookup MIC for CC(Oc1cc(Oc2ccc(C(F)(F)F)cc2Cl)ccc1Cl)C(=O)C(C#N)c1cccc(Br)c1 (stereo not drawn) ≤ 1 µg/mL

---

Provide the reported MIC of each item.
- Tested on: methicillin-resistant Staphylococcus aureus (MRSA) isolated from humans
- testDetails: Antibacterial activity (IC), Mueller-Hinton agar containing the sample (Example 8, Table 43)
- Format: cell-based
- conditionSet: Staphylococcus aureus, MRSA, 18 h, MRSA strain 900048, 37°C
- Method: The antibacterial action was evaluated by the inhibitory concentration (hereinafter abbreviated as IC) at which propagation of the bacteria cultured at 37°C for 18 hours was inhibited. Inhibition was determined by the turbidity of the medium. […] After culturing at 37°C for 18 hours, the antibacterial activity was evaluated in terms of IC in a manner similar to that described in Example 4.

Below are worked cases with known answers.
1) Cc1cc(Oc2ccc(C(F)(F)F)cc2Cl)ccc1OC(C)C(=O)C(C#N)c1ccc(Cl)c(Cl)c1 (stereo not shown) = ≤ 1 µg/mL
2) Cc1cc(OC(C)C(=O)C(C#N)c2ccc(Cl)c(Cl)c2)ccc1Oc1ccc(C(F)(F)F)cc1Cl (stereo not shown) = ≤ 1 µg/mL
3) Cc1cc(OC(C)C(=O)C(C#N)c2cccc(Br)c2)ccc1Oc1ccc(C(F)(F)F)cc1Cl (stereo not shown) = 1 to 10 µg/mL

Next item in the queue.
Quick one: MIC for Cc1cc(Oc2ccc(C(F)(F)F)cc2Cl)ccc1OC(C)C(=O)C(C#N)c1cccc(Br)c1 (stereo not shown) ? 1 to 10 µg/mL

---

- Test system: Pasteurella from fish
- testDetails: Antibacterial activity (IC), agar as in Example 8, media with 1.5% NaCl, 25°C (Example 20, Tables 53-55)
- Format: cell-based
- conditionSet: Pasteurella piscicida KP94-05
endpointName: IC

1. CC(Oc1cc(Cl)cc(Oc2ccc(C(F)(F)F)cc2Cl)c1)C(=O)C(C#N)c1ccc(Cl)c(Cl)c1 (stereo not drawn) = ≤10 (10-1 µg/ml)

I am curious: what IC value has been reported for CC(Oc1cc(Cl)cc(Oc2ccc(C(F)(F)F)cc2Cl)c1)C(=O)C(C#N)c1cccc(Br)c1 (stereo not drawn) ? ≤10 (10-1 µg/ml)

---

Exercise: state measured MIC for each of the molecules provided.
- Tested on: methicillin-resistant Staphylococcus aureus (MRSA) from humans
- testDetails: Antibacterial activity (IC), agar as in Example 8 (Example 19, Table 52)
- Type: cell-based
- conditionSet: 18 h, MRSA strain 891192

1) CC(Oc1cccc(Oc2ccc(Br)cc2F)c1)C(=O)C(C#N)c1cccc(Br)c1 (stereo not shown) = 1 to 10 µg/mL
2) CC(Oc1cc(Cl)cc(Oc2ccc(C(F)(F)F)cc2Cl)c1)C(=O)C(C#N)c1ccc(Cl)c(Cl)c1 (stereo not shown) = ≤ 1 µg/mL
3) Cc1cc(Oc2ccc(C(F)(F)F)cc2Cl)cc(OC(C)C(=O)C(C#N)c2ccc(Cl)c(Cl)c2)c1 (stereo not shown) = ≤ 1 µg/mL

Look at each molecule and report its MIC.
1. CC(Oc1cc(Oc2ccc(C(F)(F)F)cc2Cl)cc(Oc2ccc(C(F)(F)F)cc2Cl)c1)C(=O)C(C#N)c1cccc(Br)c1 (stereo not shown)
2. CC(Oc1cccc(Oc2ccc(C(F)(F)F)cc2Cl)c1)C(=O)C(C#N)c1ccc(Cl)c(Cl)c1 (stereo not shown)

1. 1 to 10 µg/mL
2. ≤ 1 µg/mL

Give MIC for each listed item.
1. CC(Oc1cc(Oc2ccc(C(F)(F)F)cc2Cl)ccc1Cl)C(=O)C(C#N)c1cccc(Br)c1 (stereo not shown)
2. CC(Oc1cccc(Oc2ccc(C(F)(F)F)cc2Cl)c1)C(=O)C(C#N)c1cccc(Br)c1 (stereo not shown)
3. CC(Oc1cccc(Oc2ccc(C(F)(F)F)cc2Cl)c1)C(=O)C(C#N)c1ccccc1 (stereo not shown)

["≤ 1 µg/mL", "1 to 10 µg/mL", "1 to 10 µg/mL"]

Give one value of MIC per listed molecule.
1. COc1cc(Oc2ccc(C(F)(F)F)cc2Cl)cc(OC(C)C(=O)C(C#N)c2ccc(Cl)c(Cl)c2)c1 (stereo not shown)
2. CC(Oc1cccc(Oc2ccc(Br)cc2F)c1)C(=O)C(C#N)c1ccc(Cl)c(Cl)c1 (stereo not shown)
3. CC(Oc1cc(Cl)cc(Oc2ccc(C(F)(F)F)cc2Cl)c1)C(=O)C(C#N)c1cccc(Br)c1 (stereo not shown)
4. CC(Oc1cccc(Oc2ccc(Br)cc2F)c1)C(=O)C(C#N)c1cccc(Cl)c1 (stereo not shown)
5. CC(Oc1cc(Oc2ccc(C(F)(F)F)cc2Cl)cc(Oc2ccc(C(F)(F)F)cc2Cl)c1)C(=O)C(C#N)c1ccc(Cl)c(Cl)c1 (stereo not shown)

1. 1 to 10 µg/mL
2. 1 to 10 µg/mL
3. ≤ 1 µg/mL
4. 1 to 10 µg/mL
5. 1 to 10 µg/mL
